# system-tested: PCP receptors
# test-name: Radioreceptor assay (3H-TCP displacement, rat brain membranes)
# conditions: read-out: Ki apparent; 1 nM 3H-TCP, whole rat brain membranes, 1 h incubation, Cheng & Prusoff; hydrochloride
Counter-ions that a name gives are not always drawn.
# Ki per record follows
Write the number in nM without appending the unit.

>  <compound>
Cc1cc(O)cc(C)c1C[C@H](N)C(=O)N1CC(C)Cc2ccccc21 (single isomer, unassigned) [Compound No. 7, hydrochloride]

>  <value-units>
nM

>  <Ki>
880

$$$$

Pending compound:
For the compound Cc1cc(O)cc(C)c1C[C@H](N)C(=O)N1CC(C)Cc2ccccc21 (single isomer, unassigned) [Compound No. 6, hydrochloride] , give its measured Ki value.
240
